B1: RPS21 (parent)
chain: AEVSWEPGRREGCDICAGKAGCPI

# Variants of: B1
# Run description: protein stability index of a GFP-peptide fusion (GPS, HEK-293T) (PSI 1-6); higher = more stable;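 also: lentivirally expressed fusions sorted by FACS into six bins by GFP to DsRed ratio, PSI derived from sequencing read proportions per bin multiplied by bin number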
# Measurement setup: c terminus: a fixed tail appended
The following variants are shown together with reported protein stability index values.
Answer using only a numeral; do not append any unit.

[in] Return the recorded protein stability index value; entry: E6R
[out] 3.04

[in] Return the recorded protein stability index value; entry: A17I
[out] 2.59

[in] Return the recorded protein stability index value; entry: S4F
[out] 2.45

[in] Return the recorded protein stability index value; entry: A17S
[out] 2.46

[in] Return the recorded protein stability index value; entry: C22Y
[out] 2.2

[in] Return the recorded protein stability index value; entry: I24E
[out] 4.76

[in] Return the recorded protein stability index value; entry: E11F
[out] 4.96

[in] Return the recorded protein stability index value; entry: K19N
[out] 2

[in] Return the recorded protein stability index value; entry: C16F
[out] 3.58
